Ref: paper PMC6273432

# target.or.system: AChE from electric eel (Electrophorus electricus)
# Construct: AChE from electric eel; from tissue
# Sequence (O42275 24-633): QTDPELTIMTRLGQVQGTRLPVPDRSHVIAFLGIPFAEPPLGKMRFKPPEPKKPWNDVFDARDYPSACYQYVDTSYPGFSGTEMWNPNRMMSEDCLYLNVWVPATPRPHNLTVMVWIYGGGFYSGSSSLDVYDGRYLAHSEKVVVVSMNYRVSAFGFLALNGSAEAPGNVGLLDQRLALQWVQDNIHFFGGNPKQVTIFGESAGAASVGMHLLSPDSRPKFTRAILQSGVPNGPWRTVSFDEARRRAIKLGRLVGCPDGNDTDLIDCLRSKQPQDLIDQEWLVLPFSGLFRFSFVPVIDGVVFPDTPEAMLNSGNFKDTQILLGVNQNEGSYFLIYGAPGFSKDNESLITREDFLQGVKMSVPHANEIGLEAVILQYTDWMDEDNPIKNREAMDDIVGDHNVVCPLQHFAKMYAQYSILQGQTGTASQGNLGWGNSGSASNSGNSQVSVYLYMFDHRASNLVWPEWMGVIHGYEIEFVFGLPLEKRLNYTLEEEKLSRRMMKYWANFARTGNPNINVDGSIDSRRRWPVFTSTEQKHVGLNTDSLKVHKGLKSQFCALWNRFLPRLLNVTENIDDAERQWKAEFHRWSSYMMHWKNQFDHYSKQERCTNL
# assay.text: Ellman assay, AChE inhibition
# Format: biochemical
# condition.info: 100 μM; n = 3; read-out: AChE %I at 100 μM
Below, each of the molecules is paired with its reported inhibition at 100 µM value.
Please reply with the bare figure in % and do not write the unit itself.

Some entries whose results are on file:
| molecule | target.or.system | reported.metric | unit.label | recorded.value |
| --- | --- | --- | --- | --- |
| CCNC(=O)O[C@H]1CO[C@H]2[C@@H]1OC[C@H]2OC(=O)CCCCC1CCSS1 (stereo partly shown) | AChE from electric eel (Electrophorus electricus) | inhibition at 100 µM | % | 84.1 |
| CCCCNC(=O)O[C@H]1CO[C@H]2[C@@H]1OC[C@H]2OC(=O)CCCCC1CCSS1 (stereo partly shown) | AChE from electric eel (Electrophorus electricus) | inhibition at 100 µM | % | 68.7 |
| O=C(CCCCC1CCSS1)O[C@@H]1CO[C@H]2[C@@H]1OC[C@@H]2OC(=O)NCc1ccccc1 (stereo partly shown) | AChE from electric eel (Electrophorus electricus) | inhibition at 100 µM | % | 30.8 |
| COc1cc(/C=C/C(=O)O[C@@H]2CO[C@H]3[C@@H]2OC[C@@H]3OC(=O)NCc2ccccc2)ccc1O [Compound 8a, Isosorbide-2-benzylcarbanate-5-ferulate] | AChE from electric eel (Electrophorus electricus) | inhibition at 100 µM | % | 25.2 |
| CCNC(=O)O[C@H]1CO[C@H]2[C@@H]1OC[C@H]2O [Compound 6d, Isosorbide-2-ethylcarbamate] | AChE from electric eel (Electrophorus electricus) | inhibition at 100 µM | % | 22 |

molecule O=C(Nc1ccccc1)O[C@H]1CO[C@H]2[C@@H]1OC[C@H]2O [Compound 6b, Isosorbide-2-phenylcarbamate] , inhibition at 100 µM observed: 25.3

Short answer for O=C(CCCCC1CCSS1)O[C@@H]1CO[C@H]2[C@@H]1OC[C@@H]2OC(=O)Nc1ccccc1 (stereo partly shown) : inhibition at 100 µM was 18.8

====

For reference, IC50 measured on AChE from electric eel (Electrophorus electricus):
A number alone suffices; assume µM.

| molecule | unit.label | IC50 |
| --- | --- | --- |
| O=C(NCc1ccccc1)O[C@H]1CO[C@H]2[C@@H]1OC[C@H]2O [Compound 6a, Isosorbide-2-benzylcarbamate] | µM | 37.5 |

Here is another molecule to look at.
Item: COc1cc(/C=C/C(=O)O[C@@H]2CO[C@H]3[C@@H]2OC[C@@H]3OC(=O)Nc2ccccc2)ccc1O [Compound 8b, Isosorbide-2-phenylcarbanate-5-ferulate] | IC50: 27.1

====

# target.or.system: BuChE purified from human plasma (Homo sapiens)
# Construct: BuChE purified from human plasma; from tissue; host or cells: human plasma
# Sequence (P06276 29-602): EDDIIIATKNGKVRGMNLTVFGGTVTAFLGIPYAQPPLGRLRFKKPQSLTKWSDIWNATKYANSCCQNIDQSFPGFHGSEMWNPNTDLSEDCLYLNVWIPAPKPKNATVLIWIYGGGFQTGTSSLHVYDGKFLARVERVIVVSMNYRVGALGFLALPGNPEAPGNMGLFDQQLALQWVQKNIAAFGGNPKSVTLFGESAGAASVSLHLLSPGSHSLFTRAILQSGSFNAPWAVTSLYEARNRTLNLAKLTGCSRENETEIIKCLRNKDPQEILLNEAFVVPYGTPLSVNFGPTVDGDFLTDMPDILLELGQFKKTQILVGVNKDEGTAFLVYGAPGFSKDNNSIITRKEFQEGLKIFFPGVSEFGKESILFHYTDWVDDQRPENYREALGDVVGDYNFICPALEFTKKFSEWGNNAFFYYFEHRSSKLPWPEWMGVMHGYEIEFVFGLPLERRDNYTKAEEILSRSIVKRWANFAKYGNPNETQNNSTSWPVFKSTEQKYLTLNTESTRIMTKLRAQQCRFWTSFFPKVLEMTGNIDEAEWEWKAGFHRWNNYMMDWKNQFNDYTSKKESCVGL
# assay.text: Ellman assay, BuChE inhibition
# Assay type: biochemical
# condition.info: n = 3; read-out: BChE pIC50 ± SEM (converted)
reported.metric: IC50 (nM)
Output spec: scalar in nM, unitless text.

| molecule | IC50, nM |
| --- | --- |
| CCCCNC(=O)O[C@H]1CO[C@H]2[C@@H]1OC[C@H]2OC(=O)CCCCC1CCSS1 (stereo partly drawn) | 209 |
| COc1cc(/C=C/C(=O)O[C@@H]2CO[C@H]3[C@@H]2OC[C@@H]3OC(=O)NCc2ccccc2)ccc1O [Compound 8a, Isosorbide-2-benzylcarbanate-5-ferulate] | 1620 |

In the following, a different molecule is considered.
Value (IC50, BuChE purified from human plasma (Homo sapiens)) for record CCNC(=O)O[C@H]1CO[C@H]2[C@@H]1OC[C@H]2O [Compound 6d, Isosorbide-2-ethylcarbamate] = 46800
